EXPERIMENTAL SYSTEM: Human immunodeficiency virus type 1 reverse transcriptase (Human immunodeficiency virus 1, UniProt Q72547, Y181I)
PROTOCOL TEXT: Inhibition of HIV1 reverse transcriptase p66/p51 Y181I mutant
MEASUREMENT CONDITIONS: read-out: IC50
EXPERIMENTAL ENDPOINT: IC50 (µM)
Numbers only, in µM.

>  <COMPOUND>
Cc1cc(C)cc(S(=O)(=O)c2c(C(=O)NCCC(N)=O)[nH]c3ccc(Cl)c(F)c23)c1

>  <REPORTED VALUE>
7.16

$$$$
>  <COMPOUND>
Cc1cc(C)cc(S(=O)(=O)c2c(C(=O)NC(C)CC(N)=O)[nH]c3ccc(Br)cc23)c1 (stereo not given)

>  <REPORTED VALUE>
15.8

$$$$
>  <COMPOUND>
Cc1cc(C)cc(S(=O)(=O)c2c(C(=O)NC(C)CC(N)=O)[nH]c3ccc(Cl)cc23)c1 (stereo not given)

>  <REPORTED VALUE>
4.14

$$$$

Next up:
The compound listed as Cc1cc(C)cc(S(=O)(=O)c2c(C(=O)NC(C)C(N)=O)[nH]c3ccc(Cl)cc23)c1 (stereo not given) shows IC50 equal to 2.49
